Test system: CAKI-1 renal
PROTOCOL_DESCRIPTION: NCI tumour cell line growth inhibition, 48 h
PARAMETER: TGI

>  <COMPOUND>
COC(=O)C1=Cc2cc(OC)c(OC)c(OC)c2[C@H](c2cc(OC)c(OC)c(OC)c2)C1C(=O)OC (stereo not given in full)

>  <PARAMETER>
TGI

>  <REPORTED>
> 100 µM

$$$$
>  <COMPOUND>
CN(C)c1ccc(/C=C/C(=O)[O-])cc1.CN(C)c1ccc(/C=C/C(=O)[O-])cc1.[Cu+2]

>  <PARAMETER>
TGI

>  <REPORTED>
> 100 µM

$$$$
>  <COMPOUND>
Oc1cc(O)c2ccc(-c3ccc(O)c(O)c3)[o+]c2c1

>  <PARAMETER>
TGI

>  <REPORTED>
> 100 µM

$$$$
>  <COMPOUND>
COc1cc2nccc(Oc3ccc(NC(=O)NC4CC4)c(Cl)c3)c2cc1C(N)=O

>  <PARAMETER>
TGI

>  <REPORTED>
> 64.2 µM

$$$$
>  <COMPOUND>
C(/C=C/c1ccccc1)=Nc1ccc2c(c1)Cc1ccccc1-2

>  <PARAMETER>
TGI

>  <REPORTED>
> 100 µM

$$$$
